Where these numbers come from: paper PMC11923649

Test system: DU-145 (prostate cancer)
Protocol notes: MTS cytotoxicity assay, 72 h, DU-145
Assay type: cell-based, human
Condition details: Homo sapiens, DU-145, 72 h, full Table S1
Measured metric: IC50

In the examples that follow, each entry is paired with its recorded IC50.
Compound | IC50
CC1(C)C(=O)C(c2cccnc2)=C[C@@]2(C)C1CC[C@]1(C)C2CCC2C3[C@H]4OC[C@@]3(CCC4(C)C)CC[C@]21C (stereo partly shown) | 43.3 µM
C=C(C)[C@@H]1CC[C@]2(C(=O)O)CC[C@]3(C)C(CCC4[C@@]5(C)C=C(c6ccncc6)C(=O)C(C)(C)C5CC[C@]43C)C12 (stereo partly shown) [Compound 11h] | 10.8 µM
C=C(C)[C@@H]1CC[C@]2(C(=O)OCc3ccccc3)CC[C@]3(C)C(CCC4[C@@]5(C)C=C(c6ccc7c(c6)OCCO7)C(=O)C(C)(C)C5CC[C@]43C)C12 (stereo partly shown) [Compound 10j] | > 50 µM
CC1(C)C(=O)C(c2ccncc2)=C[C@@]2(C)C1CC[C@]1(C)C2CCC2C3[C@H]4OC[C@@]3(CCC4(C)C)CC[C@]21C (stereo partly shown) | 22.1 µM
C=C(C)[C@@H]1CC[C@]2(C(=O)OCc3ccccc3)CC[C@]3(C)C(CCC4[C@@]5(C)C=C(c6cc7ccccc7s6)C(=O)C(C)(C)C5CC[C@]43C)C12 (stereo partly shown) [Compound 10k] | > 50 µM
C=C(C)[C@@H]1CC[C@]2(C(=O)OCc3ccccc3)CC[C@]3(C)C(CCC4[C@@]5(C)C=C(c6ccc7[nH]ccc7c6)C(=O)C(C)(C)C5CC[C@]43C)C12 (stereo partly shown) [Compound 10m] | > 50 µM
CC1(C)C(=O)C(c2ccc3[nH]ccc3c2)=C[C@@]2(C)C1CC[C@]1(C)C2CCC2C3[C@H]4OC[C@@]3(CCC4(C)C)CC[C@]21C (stereo partly shown) | 25.8 µM
C=C(C)[C@@H]1CC[C@]2(C(=O)OCc3ccccc3)CC[C@]3(C)C(CCC4[C@@]5(C)C=C(c6cncnc6)C(=O)C(C)(C)C5CC[C@]43C)C12 (stereo partly shown) [Compound 10i] | > 50 µM

Need IC50, item CC1(C)C(=O)C(c2cncc3ccccc23)=C[C@@]2(C)C1CC[C@]1(C)C2CCC2C3[C@H]4OC[C@@]3(CCC4(C)C)CC[C@]21C (stereo partly shown)
32.1 µM

Next up: C=C(C)[C@@H]1CC[C@]2(C(=O)OCc3ccccc3)CC[C@]3(C)C(CCC4[C@@]5(C)C=C(c6ccco6)C(=O)C(C)(C)C5CC[C@]43C)C12 (stereo partly shown) [Compound 10a]
> 50 µM

// next record CC1(C)C(=O)C(c2ccc3c(c2)OCCO3)=C[C@@]2(C)C1CC[C@]1(C)C2CCC2C3[C@H]4OC[C@@]3(CCC4(C)C)CC[C@]21C (stereo partly shown)
> 50 µM

How about this compound: C=C(C)[C@@H]1CC[C@]2(C(=O)OCc3ccccc3)CC[C@]3(C)C(CCC4[C@@]5(C)C=C(c6cncc7ccccc67)C(=O)C(C)(C)C5CC[C@]43C)C12 (stereo partly shown) [Compound 10l]
> 50 µM

Record: CC1(C)C(=O)C(c2ccsc2)=C[C@@]2(C)C1CC[C@]1(C)C2CCC2C3[C@H]4OC[C@@]3(CCC4(C)C)CC[C@]21C (stereo partly shown)
> 50 µM

Would you mind doing C=C(C)[C@@H]1CC[C@]2(C(=O)OCc3ccccc3)CC[C@]3(C)C(CCC4[C@@]5(C)C=C(c6ccc7cn[nH]c7c6)C(=O)C(C)(C)C5CC[C@]43C)C12 (stereo partly shown) [Compound 10n] as well?
> 50 µM

Then this compound: CC1(C)C(=O)C(c2ccoc2)=C[C@@]2(C)C1CC[C@]1(C)C2CCC2C3[C@H]4OC[C@@]3(CCC4(C)C)CC[C@]21C (stereo partly shown)
> 50 µM

Field entry: C=C(C)[C@@H]1CC[C@]2(C(=O)OCc3ccccc3)CC[C@]3(C)C(CCC4[C@@]5(C)C=C(c6ccncc6)C(=O)C(C)(C)C5CC[C@]43C)C12 (stereo partly shown) [Compound 10h]
> 50 µM

What do we get for C=C(C)[C@@H]1CC[C@]2(C(=O)OCc3ccccc3)CC[C@]3(C)C(CCC4[C@@]5(C)C=C(c6cccs6)C(=O)C(C)(C)C5CC[C@]43C)C12 (stereo partly shown) [Compound 10c] ?
> 50 µM

And for C=C(C)[C@@H]1CC[C@]2(C(=O)O)CC[C@]3(C)C(CCC4[C@@]5(C)C=C(c6cncnc6)C(=O)C(C)(C)C5CC[C@]43C)C12 (stereo partly shown) [Compound 11i] ?
17.5 µM

----------
Tested on: HCT116 p53–/–
Protocol notes: MTS cytotoxicity assay, 72 h, HCT116 p53–/–
Assay type: cell-based
Condition details: Homo sapiens, HCT-116, 72 h, full Table S1
In this section we review reported IC50 values for a set of molecules.

Record request: IC50 value, item C=C(C)[C@@H]1CC[C@]2(C(=O)OCc3ccccc3)CC[C@]3(C)C(CCC4[C@@]5(C)C=C(c6ccsc6)C(=O)C(C)(C)C5CC[C@]43C)C12 (stereo partly drawn) [Compound 10d]
> 50 µM

Same question, C=C(C)[C@@H]1CC[C@]2(C(=O)OCc3ccccc3)CC[C@]3(C)C(CCC4[C@@]5(C)C=C(c6cncc7ccccc67)C(=O)C(C)(C)C5CC[C@]43C)C12 (stereo partly drawn) [Compound 10l] this time
> 50 µM

Please answer likewise for CC1(C)C(=O)C(c2cccs2)=C[C@@]2(C)C1CC[C@]1(C)C2CCC2C3[C@H]4OC[C@@]3(CCC4(C)C)CC[C@]21C (stereo partly drawn) [Compound 4c]
> 50 µM

Now consider CC1(C)C(=O)C(c2ccc3cn[nH]c3c2)=C[C@@]2(C)C1CC[C@]1(C)C2CCC2C3[C@H]4OC[C@@]3(CCC4(C)C)CC[C@]21C (stereo partly drawn) [Compound 4n] and answer again.
30.6 µM

Repeat with C=C(C)[C@@H]1CC[C@]2(C(=O)OCc3ccccc3)CC[C@]3(C)C(CCC4[C@@]5(C)C=C(c6cccnc6)C(=O)C(C)(C)C5CC[C@]43C)C12 (stereo partly drawn) [Compound 10g]
> 50 µM

Follow-up item: C=C(C)[C@@H]1CC[C@]2(C(=O)O)CC[C@]3(C)C(CCC4[C@@]5(C)C=C(c6ccco6)C(=O)C(C)(C)C5CC[C@]43C)C12 (stereo partly drawn) [Compound 11a]
12.4 µM
